- Study target: UniProt P07738
- Sequence (P07738 whole entry): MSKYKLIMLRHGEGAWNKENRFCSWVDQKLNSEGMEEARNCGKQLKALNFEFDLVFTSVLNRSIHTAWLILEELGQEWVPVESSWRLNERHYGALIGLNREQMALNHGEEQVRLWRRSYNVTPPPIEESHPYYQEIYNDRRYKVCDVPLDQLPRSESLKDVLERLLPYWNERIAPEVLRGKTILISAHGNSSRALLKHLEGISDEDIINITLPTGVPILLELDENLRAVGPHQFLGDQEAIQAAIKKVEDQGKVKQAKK
- Assay name: BPGM Phosphatase Assay
- Assay conditions: Table 6 additional results; read-out: huBPGM: phosphatase Enzyme EC50
Record form. Attribute: pEC50. Fill in for each entry.
Numbers only, as −log10 of the molar value.

Some compounds with known pEC50 results, for comparison:
Cc1nc(COc2ccnn2C)sc1-c1csc(-c2cc(O)c(C(=O)O)cc2F)n1    6.77
Cc1nc(CNS(C)(=O)=O)sc1-c1csc(-c2cc(O)c(C(=O)O)cc2F)n1    6.52

Your task in this section: give pEC50 for each listed record.
1. Cc1nc(C(=O)c2ccn(C)n2)sc1-c1csc(-c2ccc(C(=O)O)c(O)c2)n1
2. COCCNCc1nc(C)c(-c2csc(-c3cc(O)c(C(=O)O)cc3F)n2)s1
3. Cc1nc(Cc2ccn(C)n2)sc1-c1cccc(-c2ccc(C(=O)O)c(O)c2)c1
4. Cc1nc(CNC(=O)C2CC2)sc1-c1csc(-c2cc(O)c(C(=O)O)cc2F)c1
5. Cc1cccc(Cc2nc(C)c(-c3cccc(-c4ccc(C(=O)O)c(O)c4)c3)s2)n1
6. Cc1nc(C)c(-c2csc(-c3cc(O)c(C(=O)O)cc3F)n2)s1

Marked response:
1: 6.21; 2: 6.49; 3: 6.82; 4: 6.96; 5: 5.16; 6: 6.40

Your task in this section: give pEC50 for each listed record.
1. Cc1nc(COc2cccnc2)sc1-c1cccc(-c2ccc(C(=O)O)c(O)c2)c1
2. Cc1nc(Cc2ccccc2)sc1-c1cccc(-c2cc(O)c(C(=O)O)cc2F)n1
3. Cc1nc(CNC(=O)C2CCN(C)CC2)sc1-c1csc(-c2cc(O)c(C(=O)O)cc2F)n1

Marked response:
1. 6.44
2. 7.22
3. 6.62

Your task in this section: give pEC50 for each listed record.
1. Cc1nc(Cc2ccn(C)n2)sc1-c1csc(-c2ccc(C(=O)O)c(O)c2)n1
2. Cc1nc(N)sc1-c1csc(-c2cc(O)c(C(=O)O)cc2F)n1
3. Cc1nc(CN)sc1-c1csc(-c2cc(O)c(C(=O)O)cc2F)n1
4. Cc1nc(CNCC(C)(C)C)sc1-c1csc(-c2cc(O)c(C(=O)O)cc2F)n1

Marked response:
6.48
6.08
6.00
7.30
